- system.name: Delta-type opioid receptor (Rattus norvegicus)
- assay.comment: Displacement of [3H]DPDPE from delta opioid receptor in rat membrane at 1 uM after 120 mins by scintillation counting analysis relative to control
- Type: cell membranes
readout.label: inhibition (%)

COC1Cc2ccccc2[C@]2(CC[C@H](NCC3CCCCC3)CC2)O1 (stereo partly drawn) : 33
CCOC1Cc2ccccc2[C@]2(CC[C@@H](N(C)CC3CCCCC3)CC2)O1 (stereo partly drawn) : 13
c1ccc(CN[C@H]2CC[C@]3(CC2)OCCc2ccccc23)cc1 : 20
COC1O[C@]2(CC[C@H](NCc3ccccc3)CC2)c2ccccc21 (stereo partly drawn) : 30

I. c1ccc2c(c1)CCO[C@]21CC[C@@H](NCC2CCCCC2)CC1
II. COC1Cc2ccccc2[C@]2(CC[C@H](NCc3ccccc3)CC2)O1 (stereo partly drawn)
Qu. From the recorded data, which exceeds the other in inhibition: I or II ? Selection: enter the item's label.
Ans. II

P. CN(CC1CCCCC1)[C@H]1CC[C@@]2(CC1)OC=Cc1ccccc12
Q. CN(CC1CCCCC1)[C@H]1CC[C@]2(CC1)OC=Cc1ccccc12
Qu. // select label with min value of measured inhibition from [ P , Q ] Select an item and report its label.
Ans. P
(P: 11%, Q: 38%)

* * *

- system.name: Alpha-1A adrenergic receptor (Homo sapiens) (UniProt P35348)
- Sequence (P35348 whole entry): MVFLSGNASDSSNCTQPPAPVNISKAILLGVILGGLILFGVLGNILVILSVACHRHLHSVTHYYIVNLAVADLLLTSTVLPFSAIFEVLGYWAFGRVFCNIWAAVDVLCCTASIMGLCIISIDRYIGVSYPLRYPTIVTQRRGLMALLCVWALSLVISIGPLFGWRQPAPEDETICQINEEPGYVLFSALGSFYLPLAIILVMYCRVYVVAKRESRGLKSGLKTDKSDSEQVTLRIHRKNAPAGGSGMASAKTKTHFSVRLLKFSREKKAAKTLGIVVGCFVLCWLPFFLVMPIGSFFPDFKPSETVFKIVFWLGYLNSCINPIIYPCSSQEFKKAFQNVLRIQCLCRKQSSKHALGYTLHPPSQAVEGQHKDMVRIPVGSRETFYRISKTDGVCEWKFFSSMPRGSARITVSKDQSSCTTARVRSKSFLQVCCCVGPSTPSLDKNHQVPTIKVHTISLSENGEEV
- assay.comment: Binding affinity to alpha 1a adrenergic receptor (unknown origin) at 1 uM relative to control
The source made the active and inactive calls. The calls are words filed in the database; no cut-off is given here.
readout.label: Activity

COC1Cc2ccccc2[C@]2(CC[C@H](N(C)CC3CCCCC3)CC2)O1 (some centres undefined) : 68%
COC1Cc2ccccc2[C@]2(CC[C@@H](N(C)Cc3ccccc3)CC2)O1 (some centres undefined) : inactive
COC1Cc2ccccc2[C@]2(CC[C@H](N(C)Cc3ccccc3)CC2)O1 (some centres undefined) : inactive
COC1Cc2ccccc2[C@]2(CC[C@@H](N(C)CC3CCCCC3)CC2)O1 (some centres undefined) : inactive

* * *

- system.name: Sigma intracellular receptor 2 (Rattus norvegicus)
- Sequence (Q5U3Y7 whole entry): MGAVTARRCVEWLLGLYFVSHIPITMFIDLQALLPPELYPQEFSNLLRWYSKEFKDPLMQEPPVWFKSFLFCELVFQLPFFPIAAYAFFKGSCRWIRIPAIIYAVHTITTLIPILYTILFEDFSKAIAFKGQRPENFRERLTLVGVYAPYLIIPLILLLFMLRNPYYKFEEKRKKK
- assay.comment: Displacement of [3H]-di-o-tolylguanidine from sigma2 receptor in rat liver membranes incubated for 120 mins in the presence of sigma1 receptor ligand (+)-pentazocine by scintillation counting method
- Type: cell membranes
readout.label: Ki (nM)

CCOC1Cc2ccccc2[C@]2(CC[C@H](NCC3CCCCC3)CC2)O1 (stereo partly specified) : 308
COC1Cc2ccccc2[C@]2(CC[C@H](NCC3CCCCC3)CC2)O1 (stereo partly specified) : 101
C1=Cc2ccccc2[C@]2(CC[C@H](NCC3CCCCC3)CC2)O1 : 67

a. COC1Cc2ccccc2[C@]2(CC[C@H](N(C)Cc3ccccc3)CC2)O1 (stereo partly specified)
b. COC1O[C@]2(CC[C@@H](NCC3CCCCC3)CC2)c2ccccc21 (stereo partly specified)
c. CN(CC1CCCCC1)[C@H]1CC[C@@]2(CC1)OCCc1ccccc12
d. COC1Cc2ccccc2[C@]2(CC[C@@H](N(C)Cc3ccccc3)CC2)O1 (stereo partly specified)
e. c1ccc2c(c1)CCO[C@]21CC[C@@H](NCC2CCCCC2)CC1
Qu. Sort (5 compounds) by Ki: min first. Write the labels, ordered according to the request.
Ans. b, e, c, a, d
(b: 52 nM, e: 84 nM, c: 175 nM, a: 329 nM, d: 1440 nM)

I. CCOC1Cc2ccccc2[C@]2(CC[C@@H](NCC3CCCCC3)CC2)O1 (stereo partly specified)
II. c1ccc2c(c1)CCO[C@]21CC[C@H](NCC2CCCCC2)CC1
Qu. Problem: Given the entries I and II , determine which has the lower reported Ki. Which one? Tell me its label.
Ans. II
(II: 99 nM, I: 161 nM)

All values here come from ChEMBL document CHEMBL4385605.
